tested on: IGROV1 ovarian; assay: NCI tumour cell line growth inhibition, 48 h
measured-parameter: TGI (µM)
Write it as a number; the unit µM goes unstated.

# count of solved cases: 2
smiles-data: Cc1ccc(C(=O)Nc2ccc(CNCCN3CCOCC3)c(C(F)(F)F)c2)cc1C#Cc1cnc2cccnn12
unit-of-measure: µM
reading: 3.43

smiles-data: CS(=O)(=O)Nc1cc(-c2ccc3ncc(C#N)c(Nc4cccc(Cl)c4F)c3c2)cnc1Cl
unit-of-measure: µM
reading: 0.869

// switching to the query molecule
[ask] Determine its reported TGI: "Cc1ccc2c(n1)C(=O)C(Cl)=C(Nc1cccc(C)c1C)C2=O"
[reply] 3.72
